pIC50: −log10 of the molar value.
Note to self: these compounds have pIC50 reported for BTK (Homo sapiens) in various publications.

Q: Any idea what pIC50 was measured for O=C(CNc1ccccc1S(=O)(=O)c1ccc(C(F)(F)F)cc1)N[C@@H]1CCCN(c2ncnc3[nH]ncc23)C1 ?
Result: > 7.00

Q: Which value of pIC50 has been reported for Cn1cc(-c2cn3nccc3c(-c3ccc(CNC(=O)c4nc(C(C)(C)C)no4)cc3)n2)cn1 in the records?
Result: > 9.00

Q: Bench note: what pIC50 did O=C(CNc1ccccc1F)N1CCC[C@H](Nc2ncnc3[nH]ccc23)C1 show?
Result: < 5.00

Q: Record request: pIC50 value, item COc1c(-c2ccc(Oc3cccc(F)c3)cc2)c2c(N)ncnc2n1[C@@H]1CCN(C(=O)/C=C/CN(C)C2CC2)C1
Result: > 7.00
